Consider the following compounds; for each one, report its EC50.
Biological target: TRPV4 (Homo sapiens)
Construct: expressed in transfected cells; host or cells: HEK cells
Sequence (Q9HBA0 whole entry): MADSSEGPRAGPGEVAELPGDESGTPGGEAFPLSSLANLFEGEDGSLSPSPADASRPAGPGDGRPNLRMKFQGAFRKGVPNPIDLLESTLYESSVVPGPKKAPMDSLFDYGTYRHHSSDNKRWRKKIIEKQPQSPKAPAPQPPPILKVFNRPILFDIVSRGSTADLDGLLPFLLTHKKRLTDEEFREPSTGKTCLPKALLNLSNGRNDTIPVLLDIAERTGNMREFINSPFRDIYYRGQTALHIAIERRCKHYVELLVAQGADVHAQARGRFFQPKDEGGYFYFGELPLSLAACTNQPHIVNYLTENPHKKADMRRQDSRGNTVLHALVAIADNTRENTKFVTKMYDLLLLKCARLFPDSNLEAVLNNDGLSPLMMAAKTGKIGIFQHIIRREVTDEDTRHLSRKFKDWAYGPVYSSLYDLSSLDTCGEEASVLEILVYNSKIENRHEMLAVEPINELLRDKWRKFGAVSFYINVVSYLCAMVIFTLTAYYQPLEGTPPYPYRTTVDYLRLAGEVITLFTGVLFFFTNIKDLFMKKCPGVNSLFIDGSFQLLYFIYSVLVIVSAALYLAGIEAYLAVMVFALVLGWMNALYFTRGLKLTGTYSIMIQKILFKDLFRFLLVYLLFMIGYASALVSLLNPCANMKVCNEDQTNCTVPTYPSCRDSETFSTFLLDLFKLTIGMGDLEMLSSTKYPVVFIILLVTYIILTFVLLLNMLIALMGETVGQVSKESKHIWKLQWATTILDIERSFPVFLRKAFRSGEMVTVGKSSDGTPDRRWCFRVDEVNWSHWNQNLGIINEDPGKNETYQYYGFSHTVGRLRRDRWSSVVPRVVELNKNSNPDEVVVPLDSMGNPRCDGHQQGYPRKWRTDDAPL
Test: FLIPR assay using TRPV4 expressing HEK cells
Assay type: cell-based
Conditions: FLIPR method; pEC50 = −log10(EC50 μM)

compound="CC(C)C[C@H](NC(=O)c1cc2ccccc2s1)C(=O)NCC1CN(S(=O)(=O)c2ccc(Cl)cc2Cl)CCO1 (stereo partly drawn) [Example 14]" observed_property=EC50 assay_value="≤ 0.1 µM"
compound="CC(C)[C@H](NC(=O)CCC1CCCC1)C(=O)NCC1CN(S(=O)(=O)c2ccccc2C#N)CCO1 (stereo partly drawn) [Example 44]" observed_property=EC50 assay_value="0.1 to 1.12 µM"

Next compound, please.
Request: Could you tell me which EC50 is on file for O=C(CCC1CCCC1)N[C@H](C(=O)NCC1CN(S(=O)(=O)c2ccc(Cl)cc2Cl)CCO1)c1ccccc1 (stereo partly drawn) [Example 60] ?
Response: 1.12 to 10 µM

----------
Molecular target: TRPV4 channel receptors (Bos taurus, UniProt A0A8F4X677)
Construct: obtained using this method in bovine articular chondrocytes; endogenous in cells
Sequence (A0A8F4X677 1-871): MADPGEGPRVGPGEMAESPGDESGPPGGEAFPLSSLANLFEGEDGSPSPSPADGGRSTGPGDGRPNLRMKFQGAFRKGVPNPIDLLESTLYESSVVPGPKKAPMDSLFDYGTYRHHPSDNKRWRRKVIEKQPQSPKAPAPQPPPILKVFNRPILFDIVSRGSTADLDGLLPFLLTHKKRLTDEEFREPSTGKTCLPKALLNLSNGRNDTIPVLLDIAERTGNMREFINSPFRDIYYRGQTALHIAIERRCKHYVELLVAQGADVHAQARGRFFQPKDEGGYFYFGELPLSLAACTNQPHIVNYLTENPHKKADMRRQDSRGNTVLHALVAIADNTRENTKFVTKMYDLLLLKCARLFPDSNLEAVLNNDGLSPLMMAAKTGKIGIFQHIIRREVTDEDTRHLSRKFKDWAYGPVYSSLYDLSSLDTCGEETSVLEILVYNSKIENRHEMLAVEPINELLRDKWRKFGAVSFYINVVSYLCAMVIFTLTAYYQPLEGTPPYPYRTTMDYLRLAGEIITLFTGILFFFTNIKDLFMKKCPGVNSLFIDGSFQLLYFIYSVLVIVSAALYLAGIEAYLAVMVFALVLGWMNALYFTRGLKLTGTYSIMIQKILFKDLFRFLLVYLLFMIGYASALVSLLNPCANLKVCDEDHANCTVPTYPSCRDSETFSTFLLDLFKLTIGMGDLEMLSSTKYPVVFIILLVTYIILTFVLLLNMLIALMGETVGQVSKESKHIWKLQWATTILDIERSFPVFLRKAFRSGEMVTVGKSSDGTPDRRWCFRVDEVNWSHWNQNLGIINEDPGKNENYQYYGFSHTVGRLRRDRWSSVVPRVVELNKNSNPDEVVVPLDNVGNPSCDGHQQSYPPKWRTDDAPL
Assay: Ca2+ influx, Fura-2 fluorescence on FlexStation in bovine articular chondrocytes
pEC50: −log10 of the molar value.
Consider the following compounds; for each one, report its pEC50.

Quick batch: pEC50 for everything below.
1. CC(C)C[C@H](NC(=O)c1cc2ccccc2s1)C(=O)NC[C@H]1CN(S(=O)(=O)c2ccccc2C#N)CCO1
2. CC[C@H](C)[C@H](NC(=O)c1cc2ccccc2s1)C(=O)NCC1CN(S(=O)(=O)c2ccccc2C#N)CCO1 (stereo partly drawn)
3. CC(C)C[C@H](NC(=O)c1cc2ccccc2s1)C(=O)NC[C@@H]1CN(S(=O)(=O)c2ccccc2C#N)CCO1

Response:
1: 6.05 to 6.80; 2: < 6.05; 3: 6.80 to 9.00
